test: Dissociation constant of compound at 20 degree C; assay type: physicochemical
# key: entry, value: pKa
result.type: pKa

CCN1CCC(C)c2ccccc21 (stereo unspecified); 4.18
CC1=CC(C)(C)Nc2ccccc21; 3.69
COc1cccc2c1NC(C)(C)C=C2C; 3.36
COc1cccc2c1N(C)C(C)(C)C=C2C; 6.82
COc1cc(Cc2cnc(N)nc2N)cc2c1N(C)CCC2C (stereo unspecified); 6.51
CN1CCCc2ccccc21; 4.1

----------
Molecular target: Dihydrofolate reductase (Escherichia coli)
Sequence (P0ABQ4 whole entry): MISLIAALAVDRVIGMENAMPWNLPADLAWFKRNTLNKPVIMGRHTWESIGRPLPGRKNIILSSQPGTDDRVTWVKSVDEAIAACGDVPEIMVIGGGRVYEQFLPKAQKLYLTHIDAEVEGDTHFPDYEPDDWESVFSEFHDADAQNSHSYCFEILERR
Overview of recorded Ki for various compounds
result.type: Ki (nM)

CSc1cc(Cc2cnc(N)nc2N)cc2c1NC(C)(C)C=C2C; 0.43
COc1cc(Cc2cnc(N)nc2N)cc2c1NC(C)(CF)C(F)=C2C (configuration not stated); 0.1
